Please provide measured cell viability for the entries that follow.
System: UCD52 (cells of a triple-negative basal-like breast cancer xenograft)
Protocol summary: cell viability (% of vehicle); higher = less cytotoxic
Condition parameters: 10 µM; 72 h
The response must contain the number and no unit.

Which cell viability value belongs to NCC(O)c1ccc(O)c(O)c1.O.O=C(O)C(O)C(O)C(=O)O (stereo unspecified) [Noradrenaline bitartrate monohydrate] ?
142

Input COC(=O)C1=C(C)NC(C)=C(C(=O)OC(C)C)C1c1cccc2nonc12 (stereo unspecified) [Isradipine (Dynacirc)]
76.2

Same lookup for N#CC(c1ccc(Cl)cc1)c1c(Cl)cc(-n2ncc(=O)[nH]c2=O)cc1Cl (stereo unspecified) [Diclazuril] , please.
96.3

Entry to check: CN(C)CCc1c[nH]c2ccc(CC3COC(=O)N3)cc12 (stereo unspecified) [Zolmitriptan]
94.8

What do you have for COc1cc2ncnc(Nc3ccc(F)c(Cl)c3)c2cc1NC(=O)C=CCN1CCCCC1 ?
29.7

Lookup Cl.O.O=C1Cc2cc(CCN3CCN(c4nsc5ccccc45)CC3)c(Cl)cc2N1 [Ziprasidone hydrochloride monohydrate]
25

Field entry: Brc1c(NC2=NCCN2)ccc2nccnc12.O=C(O)C(O)C(O)C(=O)O [Brimonidine Tartrate]
90.8

Next up: CCC(=C(CC)c1ccc(O)cc1)c1ccc(O)cc1 [Diethylstilbestrol]
78.3

Then this compound: CC12CCC3c4ccc(O)cc4CCC3C1CCC2O (stereo unspecified) [Estradiol]
85.9

Okay, and CCOc1cc(C(CS(C)(=O)=O)N2C(=O)c3cccc(NC(C)=O)c3C2=O)ccc1OC (stereo unspecified) ?
117

Then what about the compound O=S(=O)([O-])CCS.[Na+] [Mesna] ?
89.3

Try the compound CC(C)(C)c1cc(C(C)(C)C)c(NC(=O)c2c[nH]c3ccccc3c2=O)cc1O [Ivacaftor (VX-770)]
97.2

Thanks! And Cn1c(=O)cc(N2CCCC(N)C2)n(Cc2ccccc2C#N)c1=O (stereo unspecified) [Alogliptin (SYR-322)] ?
109

Also, C=CCNC(N)=S [Allylthiourea] please.
129

Input NCCCC(O)(P(=O)([O-])O)P(=O)(O)O.O.O.O.[Na+] [Alendronate]
94.7

What do you get for Nc1ncn(C2CC(O)C(CO)O2)c(=O)n1 (stereo unspecified) ?
136

Again, but for CCCCOc1cc(C(=O)OCCN(CC)CC)ccc1N.Cl [Oxybuprocaine HCl]
90

Try CCn1cc(C(=O)O)c(=O)c2cnc(N3CCCC3)nc21 [Piromidic Acid] next.
145

Quick one: CO[C@H]1O[C@@H]2OC3(C)CC[C@H]4[C@H](C)CC[C@@H]([C@H]1C)[C@@]24OO3 [Artemether]
97.9

Now consider CNCCC(Oc1ccccc1C)c1ccccc1.Cl (stereo unspecified) [Atomoxetine HCl] .
85

Moving on to the next compound: CN1C2CCCC1CC(NC(=O)c1nn(C)c3ccccc13)C2 (stereo unspecified) [Granisetron]
105

Cool, now CCCC(CCC)C(=O)O.CCCC(CCC)C(=O)[O-].[Na+] [Divalproex Sodium]
86.1

Can you check CC(NCCc1ccc(O)cc1)C(O)c1ccc(O)cc1.Cl (stereo unspecified) [Ritodrine HCl] next?
86.3

Try COc1ccc(C[C@H](N)C(=O)N[C@@H]2[C@H](O)[C@H](n3cnc4c(N(C)C)ncnc43)O[C@@H]2CO)cc1.Cl.Cl [Puromycin dihydrochloride] next.
34.5

Consider next the compound CN1CCN(c2nc(C3=C(c4c[nH]c5ccccc45)C(=O)NC3=O)c3ccccc3n2)CC1 [Sotrastaurin (AEB071)] in the same way.
63.9

Same read-out for Cn1cnc2c(F)c(Nc3ccc(Br)cc3Cl)c(C(=O)NOCCO)cc21 [AZD6244 (Selumetinib)] ?
84.4

Next up: COc1cc(Nc2ncc3c(n2)-c2ccc(Cl)cc2C(c2c(F)cccc2OC)=NC3)ccc1C(=O)O [MLN8237 (Alisertib)]
64.6

Repeat for the following compound: CC(=O)OC1(C(C)=O)CCC2C3CCC4=CC(=O)CCC4=C3C(c3ccc(N(C)C)cc3)CC21C (stereo unspecified) [Ulipristal acetate]
93.4

Again, but for CCCNC(=O)NS(=O)(=O)c1ccc(Cl)cc1 [Chlorpropamide]
92.5

Same thing, different compound: CCCCCCNC(=O)n1cc(F)c(=O)[nH]c1=O [Carmofur]
109

Try the compound CC1(c2nc3c(C(N)=O)cccc3[nH]2)CCCN1 (stereo unspecified) [ABT-888 (Veliparib)]
94.2

----------
What cell viability was measured for each of the following?
Test system: WHIM2 (cells of a triple-negative basal-like breast cancer xenograft)
Protocol summary: cell viability (% of vehicle); higher = less cytotoxic
Condition parameters: 10 µM; 72 h

What does the record list as cell viability for CCOc1ccc(NC(C)=O)cc1 [Phenacetin] ?
98.7

What about this compound? CC(c1ncncc1F)C(O)(Cn1cncn1)c1ccc(F)cc1F (stereo not drawn) [Voriconazole]
105

For CCOC(=O)NC1CCC2C(C1)CC1C(=O)OC(C)C1C2C=Cc1ccc(-c2cccc(F)c2)cn1 (stereo not drawn) [Vorapaxar] then?
115

// query: CC(C)NCC(O)COc1ccc(CCOCC2CC2)cc1.Cl (stereo not drawn) [Levobetaxolol HCl]
96.8

Another: CC(C)C(N)C(=O)OCC(CO)OCn1cnc2c(=O)nc(N)[nH]c21.Cl (stereo not drawn) [Valganciclovir HCl]
111

Do the same for CS(=O)(=O)c1ccc(C(O)C(CF)NC(=O)C(Cl)Cl)cc1 (stereo not drawn) [Florfenicol] please
87.4

Also check COc1cc(C=CC(=O)N2CCN(CC(=O)N3CCCC3)CC2)cc(OC)c1OC.O=C(O)C=CC(=O)O [Cinepazide maleate]
111

Input CN1CCN(CCCN2c3ccccc3Sc3ccc(C(F)(F)F)cc32)CC1.Cl.Cl [Trifluoperazine 2HCl]
43.3

----------
Test system: WHIM2
Protocol summary: cell viability (% of vehicle); higher = less cytotoxic
Condition parameters: 10 µM; 72 h
Measured metric: cell viability
// no unit, no text: just the number

Name the reported cell viability value associated with the molecule CC(C(=O)O)c1ccc2c(c1)CC(=O)c1ccccc1S2 (stereo not drawn)
98

For COc1cc2c(cc1OC)CN(CCc1ccc(NC(=O)c3cccc4c(=O)c5cccc(OC)c5[nH]c34)cc1)CC2 then?
48.2

Request: CC(C)NCC(O)c1ccc(O)c(O)c1.Cl (stereo not drawn) [Isoprenaline HCl]
77.2

Now try Nc1ccc(S(=O)(=O)Nc2ccccn2)cc1 .
100

Try the molecule Cl.Cl.O=C(O)COCCN1CCN(C(c2ccccc2)c2ccc(Cl)cc2)CC1 (stereo not drawn) [Cetirizine DiHCl]
90.1

Then this molecule: Cc1c(Cl)cccc1Nc1ccccc1C(=O)O
41.7

Also O=C1OC(C(O)CO)C(O)=C1O (stereo not drawn) ?
113

And the next one, CC(O)C(=O)O.CCOc1ccc2nc3cc(N)ccc3c(N)c2c1.O [Ethacridine lactate monohydrate] ?
49.6

----------
Tested on: HCI01 (cells of a triple-negative basal-like breast cancer xenograft)
Protocol summary: cell viability (% of vehicle); higher = less cytotoxic
Condition parameters: 1 µM; 72 h
Assignment: determine reported cell viability for the given molecules.
// no unit, no text: just the number

Query the reported cell viability for HCI01; item: Cl.OC(c1cc(C(F)(F)F)nc2c(C(F)(F)F)cccc12)C1CCCCN1 (configuration not stated) [Mefloquine hydrochloride]
97.5

Next entry: CCCCCCCCc1ccc(CCC(N)(CO)CO)cc1.Cl
97.7

Field entry: O=C(c1ccc(F)c(F)c1Nc1ccc(I)cc1F)N1CC(O)(C2CCCCN2)C1 (configuration not stated)
74.9

Now this one: CC(O)C(=O)O.CC(O)C(=O)O.CN1CCN(c2ccc3c(c2)NC(=C2C(=O)N=c4cccc(F)c4=C2N)N3)CC1
103

What do you get for CC(C)COc1ccc(CNC(=O)N(Cc2ccc(F)cc2)C2CCN(C)CC2)cc1 ?
93.5

Field entry: N.N.O=C([O-])C1(C(=O)[O-])CCC1.[Pt+2]
87.9

Also check CC(C)C(=O)OCC(=O)[C@@]12O[C@H](C3CCCCC3)O[C@@H]1C[C@H]1[C@@H]3CCC4=CC(=O)C=C[C@]4(C)[C@H]3[C@@H](O)C[C@@]12C [Ciclesonide]
115

----------
Test system: HCI01
Protocol summary: cell viability of combination (% of vehicle); higher = less cytotoxic
Condition parameters: 1 µM; 72 h; partner dose: 10 nM
Mark Fulfilled for cell viability of combination under 50, Not fulfilled if at or over.

Given the entry C=C1C(=CC=C2CCCC3(C)C2CCC3C(C)CCCC(C)C)CC(O)CC1O (stereo not given) [Alfacalcidol] + CN(C)C/C=C/C(=O)Nc1cc2c(Nc3ccc(F)c(Cl)c3)ncnc2cc1O[C@H]1CCOC1 , would its reported cell viability of combination be below 50?
Fulfilled

Follow-up entry: Clc1ccc(C(Cn2ccnc2)OCc2ccsc2Cl)c(Cl)c1 (stereo not given) [Tioconazole] + CN(C)C/C=C/C(=O)Nc1cc2c(Nc3ccc(F)c(Cl)c3)ncnc2cc1O[C@H]1CCOC1
Not fulfilled

Please give the result for COc1cc2c(Oc3ccc4[nH]c(C)cc4c3F)ncnc2cc1OCCCN1CCCC1 [Cediranib (AZD217)] + CN(C)C/C=C/C(=O)Nc1cc2c(Nc3ccc(F)c(Cl)c3)ncnc2cc1O[C@H]1CCOC1 too.
Fulfilled

Entry to check: CNCCC(Oc1ccc(C(F)(F)F)cc1)c1ccccc1.Cl (stereo not given) [Fluoxetine HCl] + CN(C)C/C=C/C(=O)Nc1cc2c(Nc3ccc(F)c(Cl)c3)ncnc2cc1O[C@H]1CCOC1
Fulfilled

Field entry: CC(C)(C)Cn1c(N)nc2ccc(-c3[nH]c(C(C)(C)C)nc3-c3ccc(F)cc3)nc21.CS(=O)(=O)O.CS(=O)(=O)O + CN(C)C/C=C/C(=O)Nc1cc2c(Nc3ccc(F)c(Cl)c3)ncnc2cc1O[C@H]1CCOC1
Fulfilled
